Please respond with reported pre-steady-state target cleavage rate for every item in the list.
System: MIWI (PIWIL1) piRISC loaded with L1MC piRNA (30 nt);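 also: 1 nM active piRISC with 0.1 nM target library at 33 °C single turnover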
PROTOCOL SUMMARY: pre-steady-state target cleavage rate (min^-1); higher = faster piRNA-guided slicing of the target
ASSAY CONTEXT: guide: L1MC piRNA 5'p-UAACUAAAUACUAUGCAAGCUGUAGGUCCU; auxiliary factor: 500 nM mouse GTSF1
Whole data set: some 8,200 sequences, median “pre-steady-state target cleavage rate” near 0.024, cut for the highest 2% near 1.3. What follows is part of a selection rich in the highest values, with near analogues and random picks from the rest.

construct_sequence=UCCUGGAAGAGCUUGCAUAGUAUUUUGUUA value_reported=0.704

Look at each sequence and report its pre-steady-state target cleavage rate.
1. UGGACCUACAGCUAGCAUAGUAUUUAGUUA
2. AGGACCUACAGCUAGCAUAGUAUUUAGUAA
3. AGGCCCUACAGCUUGCAUAGUAUUUAGUUA
4. UCGACGUACAGCUUGCAUAGUAUUUAGUAA
5. ACGACGUACAGCUUGCAUAGUAUUUAGUUA
6. UCCUGGAUGAGCUUGCAUAGUAUAUUGUUA
7. UCGACGUACAGCUUGCAUAGUAUUUAGAAA
8. UGGACCUACAGCUUGCAUACUAAUUAGUUA

1.41
0.836
1.15
1.01
1.55
0.165
0.288
0.154

Look at each sequence and report its pre-steady-state target cleavage rate.
1. UGGACGUACAGCUUGCAUAGUAUUUAGUUA
2. UCGACGUACAGCUUGCAUAGUAUUUAGUUA
3. UCCACGUACAGCUUGCAAAGUAUUUAGUUA
4. UCCACCUACAGCUUAGCAUAGUAUUUAGUUA

[1.26, 1.56, 1.19, 1.02]

###

Please respond with reported pre-steady-state target cleavage rate for every item in the list.
Tested on: MIWI (PIWIL1) piRISC loaded with L1MC piRNA (30 nt);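 also: 1 nM active piRISC with 0.1 nM target library at 33 °C single turnover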
PROTOCOL SUMMARY: pre-steady-state target cleavage rate (min^-1); higher = faster piRNA-guided slicing of the target
ASSAY CONTEXT: guide: L1MC piRNA 5'p-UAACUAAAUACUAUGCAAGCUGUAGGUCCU; auxiliary factor: none (no GTSF1)
Over roughly 8,200 sequences, “pre-steady-state target cleavage rate” has its median near 0.024; the highest 2% begin near 1.3. Only a selection was taken, and the highest values are over-represented in it overall.

Look at each sequence and report its pre-steady-state target cleavage rate.
1. UCCUGGAUGAGCUUGCUUAGUAUUUACUUA
2. UCCUGGAUGUCGAACGUAUCUAAUUAGUAA
3. UCCUGGUACAGCUAGCAUAGUAUUAAGUUA
4. UCGACCUACAGCUUGCAAAGUAUUUACAAA
5. UGGACCUACAGCUUGCAUAGUAUUUACUUA
6. UCGACCUGACAGCUUGCAUAGUAUUUAGUUA

1: 0.0202; 2: < 0.0001; 3: 0.00772; 4: 0.00465; 5: 0.0361; 6: 0.0632

Look at each sequence and report its pre-steady-state target cleavage rate.
1. UCCACUUACAGCUUGCAUAGUAUUUAGUUA
2. UGGUCCUACAGCUUGCAUAGUAUUUUGUUA
3. UCGACCUUCUGCUUGCAUAGUAUUUAGUUA
4. UCCACCUGCAGCUUGCAUAGUAUUUAGUUA
5. UCGACCUGCAGCUUGCAUAGUAUUUAGUUA
6. UCCUGGAACAGCUUGCUUAGUAAUUAGUUA
7. UCGACUACAGCUUGCAUAGUAUUUAGUUA

1: 0.0668; 2: 0.0592; 3: 0.0653; 4: 0.0541; 5: 0.0674; 6: 0.0141; 7: 0.0713

###

Tested on: MIWI (PIWIL1) piRISC loaded with L1MC piRNA (30 nt);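 also: 1 nM active piRISC with 0.1 nM target library at 33 °C single turnover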
PROTOCOL SUMMARY: pre-steady-state target cleavage rate (min^-1); higher = faster piRNA-guided slicing of the target
ASSAY CONTEXT: guide: L1MC piRNA 5'p-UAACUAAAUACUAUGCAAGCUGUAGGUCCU; auxiliary factor: 500 nM mouse GTSF1
Whole data set: some 8,200 sequences, median “pre-steady-state target cleavage rate” near 0.024, cut for the highest 2% near 1.3. Many of the other results were omitted from the sample, so the highest values are more common in it than they were.
Hi, to clarify the labels: yes (1) covers pre-steady-state target cleavage rate from 0.6 upward, no (0) covers anything below 0.6.

construct_sequence=AGGACCUACACGCUUGCAUAGUAUUUAGUUA group="yes (1)"
construct_sequence=AGGACCUACAGCUUGCAUAUUAUUUAGUUA group="yes (1)"
construct_sequence=UGGACCUACAGCUUGCAUAUUAUUUAGUUA group="yes (1)"
construct_sequence=UCCUCCUACGCUUGCAUAGUAUUUAGUUA group="yes (1)"
construct_sequence=UCGACCUAGAGCUUGCAUAGUAUUUAGAAA group="no (0)"

Record "UCCUGGAUGUGCUUUGCAUAGUAUUUAGUUA" ; criterion: pre-steady-state target cleavage rate no lower than 0.6. Met? no (0)

Next record, please: "UCCUGGUACUGCAUGCAUAGUAUUUAGUUA" no (0)

Next record, please: "AGGACCUACCAGCUUGCAUAGUAUUUAGUUA" yes (1)

Next record, please: "UGGACCUACAGCUUGCAUAUAUUUAGUUA" no (0)

Next record, please: "UCCACCUACAGCAAGCAUAGUAUUUAGUAA" no (0)

Next record, please: "UGGACCUACAGCUUGCUUAGUAUUAAGUUA" no (0)

Next record, please: "UCGACCUACCGCUUGCAUAGUAUUUAGUUA" yes (1)

###

System: MIWI (PIWIL1) piRISC loaded with L1MC piRNA (30 nt);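 also: 1 nM active piRISC with 0.1 nM target library at 33 °C single turnover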
PROTOCOL SUMMARY: pre-steady-state target cleavage rate (min^-1); higher = faster piRNA-guided slicing of the target
ASSAY CONTEXT: guide: L1MC piRNA 5'p-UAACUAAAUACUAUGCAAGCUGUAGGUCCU; auxiliary factor: none (no GTSF1)
Over roughly 8,200 sequences, “pre-steady-state target cleavage rate” has its median near 0.024; the highest 2% begin near 1.3. The list comes from a sample in which the highest values are over-represented; it also holds close analogues and randomly drawn sequences.
Hi, to clarify the labels: true covers pre-steady-state target cleavage rate from 0.02 upward, false covers anything below 0.02.

Consider the following illustrative entries.
construct_sequence=AGCAGCUACAGCUUGCAUAGUAUUUAGUUA assay_system="MIWI (PIWIL1) piRISC loaded with L1MC piRNA (30 nt)" group=true
construct_sequence=UCGACCUACAGCUUCAUAGUAUUUAGUUA assay_system="MIWI (PIWIL1) piRISC loaded with L1MC piRNA (30 nt)" group=false
construct_sequence=UGCAGCUACAGCUUGCAUAGUAUUUAGUUA assay_system="MIWI (PIWIL1) piRISC loaded with L1MC piRNA (30 nt)" group=true
construct_sequence=UGCUGCUACAGCUUGCAUAGUAUUUAGUUA assay_system="MIWI (PIWIL1) piRISC loaded with L1MC piRNA (30 nt)" group=true
construct_sequence=AGGACCAACAGCUUGCAUAGUAUAUAGUUA assay_system="MIWI (PIWIL1) piRISC loaded with L1MC piRNA (30 nt)" group=true
construct_sequence=UCCACCUACAGCUUGCAUAGUAUUUAGGUUA assay_system="MIWI (PIWIL1) piRISC loaded with L1MC piRNA (30 nt)" group=false

Record "AGCUGCUACAGCUUGCAUAGUAUUUAGUUA" ; criterion: pre-steady-state target cleavage rate no lower than 0.02. Met? true

Next record, please: "UCGACCUACAGCUUCGAUAGUAUUUAGUUA" false

Next record, please: "UCCUGGAACAGCUGCAUAGUAUUUAGUUA" false

Next record, please: "UCCUGCUACAGCUUGCAUAUAUUUAGUUA" false

Next record, please: "UCCUGCUACAGCUUGCAUAGUAUUUUAGUUA" false

Next record, please: "UGGACCUACAGCUUCGCAUAGUAUUUAGUUA" true

Next record, please: "UGGUGCUACAGCUUGCAUAGUAUUUAGUUA" true

Next record, please: "UCCUGGAUGUCCUUGCAUAGUAUUUAGUGUA" false

###

Test system: MIWI (PIWIL1) piRISC loaded with L1MC piRNA (30 nt);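 also: 1 nM active piRISC with 0.1 nM target library at 33 °C single turnover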
PROTOCOL SUMMARY: pre-steady-state target cleavage rate (min^-1); MIWI and MILI are mouse PIWI proteins and EfPiwi is from a freshwater sponge; tags in brackets are library labels; higher = faster piRNA-guided slicing of the target;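 also: 1 nM active piRISC with 0.1 nM target library at 33 °C single turnover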
ASSAY CONTEXT: guide: L1MC piRNA 5'p-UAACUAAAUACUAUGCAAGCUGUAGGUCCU; auxiliary factor: none (no GTSF1)
In all, about 8,200 sequences were measured (“pre-steady-state target cleavage rate”: median about 0.024, highest 2% from about 1.3 on). This is one part of a sample in which the highest values are shown more often than they occur.
Please respond with reported pre-steady-state target cleavage rate for every item in the list.
Answers are plain numbers.

Solved cases below.
construct_sequence=UCCUGGUACAGCUUGCAUAGUAAUUAGAUA assay_system="MIWI (PIWIL1) piRISC loaded with L1MC piRNA (30 nt)" recorded_metric="pre-steady-state target cleavage rate" value_reported=0.00778
construct_sequence=UCGACCUACAGUCUUGCAUAGUAUUUAGUUA assay_system="MIWI (PIWIL1) piRISC loaded with L1MC piRNA (30 nt)" recorded_metric="pre-steady-state target cleavage rate" value_reported=0.0611
construct_sequence=UGGACCUACAUCUUGCAUAGUAUUUAGUUA assay_system="MIWI (PIWIL1) piRISC loaded with L1MC piRNA (30 nt)" recorded_metric="pre-steady-state target cleavage rate" value_reported=0.0737
construct_sequence=UCCUGGAUGUGCUUGCAUAGUAUUUAGGUUA assay_system="MIWI (PIWIL1) piRISC loaded with L1MC piRNA (30 nt)" recorded_metric="pre-steady-state target cleavage rate" value_reported=0.0232
construct_sequence=UCGACCUACAGCAAGCAUAGUAUUUAGUAA assay_system="MIWI (PIWIL1) piRISC loaded with L1MC piRNA (30 nt)" recorded_metric="pre-steady-state target cleavage rate" value_reported=0.00275
construct_sequence=UGGACCUACAUGCUUGCAUAGUAUUUAGUUA assay_system="MIWI (PIWIL1) piRISC loaded with L1MC piRNA (30 nt)" recorded_metric="pre-steady-state target cleavage rate" value_reported=0.0601
construct_sequence=AGGACCUACAUGCUUGCAUAGUAUUUAGUUA assay_system="MIWI (PIWIL1) piRISC loaded with L1MC piRNA (30 nt)" recorded_metric="pre-steady-state target cleavage rate" value_reported=0.0684
construct_sequence=UGGACCUACAGCAAGCAUAGUAUUUAGUUA assay_system="MIWI (PIWIL1) piRISC loaded with L1MC piRNA (30 nt)" recorded_metric="pre-steady-state target cleavage rate" value_reported=0.00929
construct_sequence=UCCUGGAUGAGCUUGAAUAGUAUUUAGUUA assay_system="MIWI (PIWIL1) piRISC loaded with L1MC piRNA (30 nt)" recorded_metric="pre-steady-state target cleavage rate" value_reported=0.0233
construct_sequence=UCCUGGAUGUGCUUGCAUACUAUUUAGUUA assay_system="MIWI (PIWIL1) piRISC loaded with L1MC piRNA (30 nt)" recorded_metric="pre-steady-state target cleavage rate" value_reported=0.0191

Look at each sequence and report its pre-steady-state target cleavage rate.
1. UCCUGGUACUGCUUGCAUAGUAAUUAGUUA
2. UCGAGCUACAGCUUGCAUAGUAUUUUGUUA
3. UCCUGGAUCAGCCUGCAUAGUAUUUAGUUA

1: 0.0127; 2: 0.0528; 3: 0.0431
